# SYSTEM: CDK12 (nuclear staining in CAL-120 cells) (Homo sapiens, UniProt Q9NYV4)
# Construct: endogenous in cells; host or cells: CAL-120 human breast cancer cells (DSMZ ACC 459)
# Sequence (Q9NYV4 whole entry): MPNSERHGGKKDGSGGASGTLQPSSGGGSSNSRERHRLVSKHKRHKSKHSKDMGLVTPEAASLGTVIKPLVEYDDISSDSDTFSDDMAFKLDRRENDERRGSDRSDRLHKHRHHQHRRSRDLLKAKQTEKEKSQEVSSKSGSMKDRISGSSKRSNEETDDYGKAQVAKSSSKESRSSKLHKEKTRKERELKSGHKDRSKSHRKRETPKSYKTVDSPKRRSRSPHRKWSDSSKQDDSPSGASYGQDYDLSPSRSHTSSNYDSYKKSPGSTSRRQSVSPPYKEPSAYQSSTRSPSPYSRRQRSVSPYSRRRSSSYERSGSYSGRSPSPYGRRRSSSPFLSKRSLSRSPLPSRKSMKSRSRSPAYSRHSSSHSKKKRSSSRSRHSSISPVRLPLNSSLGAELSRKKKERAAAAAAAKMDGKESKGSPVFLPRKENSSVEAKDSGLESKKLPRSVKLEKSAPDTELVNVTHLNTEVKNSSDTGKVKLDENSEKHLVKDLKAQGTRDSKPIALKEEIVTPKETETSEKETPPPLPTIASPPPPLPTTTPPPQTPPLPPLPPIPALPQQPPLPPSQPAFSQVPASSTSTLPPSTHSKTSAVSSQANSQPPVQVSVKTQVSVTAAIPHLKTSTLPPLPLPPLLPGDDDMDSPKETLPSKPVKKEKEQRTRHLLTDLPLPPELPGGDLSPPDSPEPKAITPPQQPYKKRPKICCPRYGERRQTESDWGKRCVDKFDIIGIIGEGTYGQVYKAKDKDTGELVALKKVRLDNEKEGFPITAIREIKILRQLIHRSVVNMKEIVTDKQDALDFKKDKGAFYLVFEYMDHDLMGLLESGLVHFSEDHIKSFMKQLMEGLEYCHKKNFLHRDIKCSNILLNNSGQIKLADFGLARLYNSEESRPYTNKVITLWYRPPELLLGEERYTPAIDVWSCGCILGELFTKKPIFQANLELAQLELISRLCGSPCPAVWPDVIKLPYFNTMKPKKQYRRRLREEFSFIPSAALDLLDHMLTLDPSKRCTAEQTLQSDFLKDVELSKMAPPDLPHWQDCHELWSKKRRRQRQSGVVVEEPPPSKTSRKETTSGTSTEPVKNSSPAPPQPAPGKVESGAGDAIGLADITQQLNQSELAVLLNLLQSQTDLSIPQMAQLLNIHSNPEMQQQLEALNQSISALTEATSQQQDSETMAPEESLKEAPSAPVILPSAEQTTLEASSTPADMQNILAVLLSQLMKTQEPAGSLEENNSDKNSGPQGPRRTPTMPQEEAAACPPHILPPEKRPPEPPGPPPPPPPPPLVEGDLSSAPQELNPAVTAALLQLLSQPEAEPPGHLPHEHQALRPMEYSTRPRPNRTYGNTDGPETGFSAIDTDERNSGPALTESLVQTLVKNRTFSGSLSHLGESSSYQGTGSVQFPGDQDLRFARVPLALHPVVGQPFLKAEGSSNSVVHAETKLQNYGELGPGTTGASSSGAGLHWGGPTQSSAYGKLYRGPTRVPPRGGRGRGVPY
# Sequence (O75909 whole entry partner): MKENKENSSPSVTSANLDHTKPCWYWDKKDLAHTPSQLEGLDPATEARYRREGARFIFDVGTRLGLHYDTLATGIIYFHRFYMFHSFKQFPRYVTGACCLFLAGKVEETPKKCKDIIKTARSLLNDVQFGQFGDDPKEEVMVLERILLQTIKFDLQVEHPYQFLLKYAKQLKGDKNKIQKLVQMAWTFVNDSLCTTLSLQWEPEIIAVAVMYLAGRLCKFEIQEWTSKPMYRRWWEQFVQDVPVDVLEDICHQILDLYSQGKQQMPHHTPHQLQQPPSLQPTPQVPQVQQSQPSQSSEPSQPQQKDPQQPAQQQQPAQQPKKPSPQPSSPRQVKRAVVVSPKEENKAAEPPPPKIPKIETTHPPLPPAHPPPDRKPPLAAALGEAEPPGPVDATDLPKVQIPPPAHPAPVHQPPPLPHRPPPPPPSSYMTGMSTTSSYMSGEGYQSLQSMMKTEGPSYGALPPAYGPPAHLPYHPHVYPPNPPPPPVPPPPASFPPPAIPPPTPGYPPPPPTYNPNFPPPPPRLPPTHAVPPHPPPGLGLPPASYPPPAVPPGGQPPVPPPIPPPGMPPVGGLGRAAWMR
# MEASUREMENT PROTOCOL: CDK12 nuclear protein level: immunofluorescence/high content analysis (CAL-120)
# Type: cell-based
# CONDITION DETAILS: ratio of IC50 CDK12 high ATP kinase assay to DC50 CDK12 degradation (IF, CAL-120)
Threshold 600. (IC50 CDK12 high ATP) to (Degradation DC50 CDK12) ratio below it: True. (IC50 CDK12 high ATP) to (Degradation DC50 CDK12) ratio at it or above: False.

                                   molecule  assigned_category
0  O=C1CN(c2nc(NCc3nc4ccccc4[nH]3)n3ncc(Br)c3n2)CCN1 [Example 167]               True
1  Cc1cc2nc(CNc3nc(N4CCN(C)CC4)nc4c(Br)cnn34)[nH]c2cc1C [Example 342]              False
2  CN1CCN(c2nc(NCc3nc4cc(F)ccc4[nH]3)n3ncc(C4CC4)c3n2)CC1 [Example 164]              False
3  CCNc1nc(NCc2nc3ccccc3[nH]2)n2ncc(Br)c2n1 [Example 227]               True
4  NCCc1ccc2[nH]c(CNc3nc(N4CCOCC4)nc4c(Br)cnn34)nc2c1.O=CO [Example 113]               True
5  Cc1ccc2[nH]c(CNc3nc(N4C[C@@H](C)N[C@@H](C)C4)nc4c(C5CC5)cnn34)nc2c1 [Example 194]              False
6  CN1CCCN(c2nc(NCc3nc4ccccc4[nH]3)n3ncc(Br)c3n2)CC1 [Example 390]              False
7  Fc1ccc2[nH]c(CNc3nc(N4CCOCC4)nc4c(CC(F)(F)F)cnn34)nc2c1F [Example 268]              False
